These entries and their values trace back to PubChem BioAssay AID2060512.

# System: 186277-243-T-J2-PDC complex spheroid viability;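 also: spheroids exposed to drugs for 7 days; 100% = DMSO vehicle control viability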
# assay-notes: Anticancer human tumor 186277-243-T-J2-PDC patient-derived colon adenocarcinoma cell line growth inhibition [GQUAD]; active = viability on the fitted dose curve at most 10% of control; inactive = the rest
# settings: second compound 0.0316 µM; first compound 0.316 µM
Return exactly one item of true (1) for active, false (0) for inactive

# input Field: outcome | Entry: Cn1ncnc1[C@H]1c2n[nH]c(=O)c3cc(F)cc(c23)N[C@@H]1c1ccc(F)cc1 + CN(C)c1ccc(Nc2c3ccc(NC(=O)CCN4CCCC4)cc3nc3cc(NC(=O)CCN4CCCC4)ccc23)cc1
# output false (0)

# input Field: outcome | Entry: COc1cc(C2c3cc4c(cc3C(OC3OC5COC(C)OC5C(O)C3O)C3COC(=O)C23)OCO4)cc(OC)c1O (stereo not given) + CN(C)c1ccc(Nc2c3ccc(NC(=O)CCN4CCCC4)cc3nc3cc(NC(=O)CCN4CCCC4)ccc23)cc1
# output false (0)

# input Field: outcome | Entry: O=C(c1cc(Cc2n[nH]c(=O)c3ccccc23)ccc1F)N1CCN(C(=O)C2CC2)CC1 + Cc1cnc(CNC(=O)c2c(=O)c3ccc(N4CCCN(C)CC4)nc3n3c2sc2ccccc23)cn1
# output false (0)

# input Field: outcome | Entry: O=c1[nH]cc(F)c(=O)[nH]1 + CN(C)c1ccc(Nc2c3ccc(NC(=O)CCN4CCCC4)cc3nc3cc(NC(=O)CCN4CCCC4)ccc23)cc1
# output false (0)

# input Field: outcome | Entry: CC(=O)O[C@H]1C(=O)[C@@]2(C)[C@H]([C@H](OC(=O)c3ccccc3)[C@]3(O)C[C@H](OC(=O)[C@H](O)[C@@H](NC(=O)c4ccccc4)c4ccccc4)C(C)=C1C3(C)C)[C@]1(OC(C)=O)CO[C@@H]1C[C@@H]2O + CN(C)c1ccc(Nc2c3ccc(NC(=O)CCN4CCCC4)cc3nc3cc(NC(=O)CCN4CCCC4)ccc23)cc1
# output true (1)
